- test.system: Hsp90 ATP binding site (Homo sapiens)
- protocol.description: ATP binding site competitive FP assay
recorded.endpoint: pIC50
# pIC50 is unitless: minus log10 of the molar concentration; print number only

Lab note: CC(C)c1cc(C(=O)N2Cc3ccc(CN4CCN(C)CC4)cc3C2)c(O)cc1O [AT13387] gave pIC50 of 7.92

----------
- test.system: UniProt P07900
recorded.endpoint: IC50 (nM)
Could you give me the number in nM? Just the number is fine.

Given the molecule "CC(C)c1cc(C(=O)N2Cc3ccc(CN4CCN(C)CC4)cc3C2)c(O)cc1O" and test system UniProt P07900, the measured IC50 is 160
